From: ChEMBL document CHEMBL1147907

Please go through the items and note down their pKi.
measurement_target: Low molecular weight phosphotyrosine protein phosphatase (Bos taurus, UniProt P11064)
Sequence (P11064 whole entry): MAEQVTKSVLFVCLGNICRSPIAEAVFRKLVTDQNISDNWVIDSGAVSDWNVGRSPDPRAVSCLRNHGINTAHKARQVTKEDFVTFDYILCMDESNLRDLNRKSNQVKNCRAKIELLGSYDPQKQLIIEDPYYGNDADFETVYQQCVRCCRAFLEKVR
Reminder that pKi is minus the log10 of a molar concentration.

Per the record, O=C(O)c1ccc2[nH]c3c(c2c1)CSCC3 has pKi of 3.62

Per the record, O=C(O)c1ccc(C2Nc3c(F)cc(F)cc3C3C=CCC32)cc1 (configuration not stated) has pKi of 3.04

Per the record, CCn1c2c(c3cc(C(=O)O)ccc31)CCCC2=O has pKi of 3.21

Per the record, O=C(O)Cc1ccc(C2C(=O)C3SC=CC3NC2=S)cc1 (configuration not stated) has pKi of 3.06

Per the record, O=C(O)Cc1ccc2c(c1)[nH]c1ccc(Br)cc12 has pKi of 4.22
